These data points were gathered from ChEMBL document CHEMBL3352032.

Collected Ratio IC50 values appear next to each entry.
system: Plasmodium falciparum; experiment: Resistance index, ratio of IC50 for chloroquine-resistant Plasmodium falciparum K1 to IC50 for chloroquine-sensitive Plasmodium falciparum 3D7; type: functional
measure: Ratio IC50

| smi | qualifierSymbol | observedMeasurement |
| --- | --- | --- |
| CN1CCN(C(=O)C[C@H](Cc2ccccc2)Nc2ccnc3cc(Cl)ccc23)CC1 | = | 2.87 |
| CN1CCN(C(=O)CC[C@H](Cc2ccccc2)Nc2ccnc3cc(Cl)ccc23)CC1 | = | 6.18 |
| CN1CCN(C(=O)[C@H](Cc2ccccc2)Nc2ccnc3cc(Cl)ccc23)CC1 | = | 1.06 |
| C[C@H](Nc1ccnc2cc(Cl)ccc12)C(=O)NCCCN(C)C | > | 3.51 |
| CC[C@H](C)[C@H](Nc1ccnc2cc(Cl)ccc12)C(=O)N1CCN(C)CC1 | = | 4.34 |
| CC[C@H](C)[C@@H](CC(=O)N1CCN(C)CC1)Nc1ccnc2cc(Cl)ccc12 | = | 5.08 |
| CN1CCN(C(=O)CNc2ccnc3cc(Cl)ccc23)CC1 | = | 1.18 |
| CSCC[C@H](Nc1ccnc2cc(Cl)ccc12)C(=O)N1CCN(C)CC1 | = | 2.2 |
| CC(C)C[C@H](Nc1ccnc2cc(Cl)ccc12)C(=O)N1CCN(C)CC1 | = | 2.44 |
| CN1CCN(C(=O)CCCNc2ccnc3cc(Cl)ccc23)CC1 | = | 11.99 |
| C[C@H](O)[C@H](Nc1ccnc2cc(Cl)ccc12)C(=O)N1CCN(C)CC1 | > | 9.67 |
| CN1CCN(C(=O)CCNc2ccnc3cc(Cl)ccc23)CC1 | = | 11.1 |
| CC(C)[C@H](Nc1ccnc2cc(Cl)ccc12)C(=O)N1CCN(C)CC1 | = | 2.21 |
| CN1CCN(C(=O)[C@H](CO)Nc2ccnc3cc(Cl)ccc23)CC1 | = | 7.96 |
| CN1CCN(C(=O)[C@H](Cc2c[nH]c3ccccc23)Nc2ccnc3cc(Cl)ccc23)CC1 | = | 1.17 |
| C[C@H](Nc1ccnc2cc(Cl)ccc12)C(=O)N1CCN(C)CC1 | = | 2.79 |
| CC(C)[C@H](CC(=O)N1CCN(C)CC1)Nc1ccnc2cc(Cl)ccc12 | = | 7.33 |
| CCN(CC)CCCNC(=O)[C@H](C)Nc1ccnc2cc(Cl)ccc12 | > | 6.05 |
| C[C@H](Nc1ccnc2cc(Cl)ccc12)C(=O)NCCN1CCCCC1 | > | 7.8 |
| CCN(CC)CCNC(=O)[C@H](C)Nc1ccnc2cc(Cl)ccc12 | > | 14.13 |

* * *

assay: Association constant, log K of the compound in aqueous DMSO at pH 7.5 assessed as complex formation by UV spectrophotometry; assay type: physicochemical; conditions: buffer

| smi | log K |
| --- | --- |
| C[C@H](Nc1ccnc2cc(Cl)ccc12)C(=O)NCCCN(C)C | 5.34 |
| CN1CCN(C(=O)[C@H](CO)Nc2ccnc3cc(Cl)ccc23)CC1 | 5.68 |
| CC[C@H](C)[C@H](Nc1ccnc2cc(Cl)ccc12)C(=O)N1CCN(C)CC1 | 5.72 |
| C[C@H](Nc1ccnc2cc(Cl)ccc12)C(=O)N1CCN(C)CC1 | 5.36 |
| CC(C)[C@H](Nc1ccnc2cc(Cl)ccc12)C(=O)N1CCN(C)CC1 | 6.39 |
| CN1CCN(C(=O)CC[C@H](Cc2ccccc2)Nc2ccnc3cc(Cl)ccc23)CC1 | 5.32 |
| CCN(CC)CCCNC(=O)[C@H](C)Nc1ccnc2cc(Cl)ccc12 | 5.27 |
| C[C@H](Nc1ccnc2cc(Cl)ccc12)C(=O)N1CCN(c2ccccc2)CC1 | 5.94 |
| CC(C)[C@H](CC(=O)N1CCN(C)CC1)Nc1ccnc2cc(Cl)ccc12 | 5.33 |
| C[C@H](Nc1ccnc2cc(Cl)ccc12)C(=O)NCCN1CCCCC1 | 5.73 |
